- testedTarget: T1, PHD1 (KDM5C residues 318–378) (human, UniProt P41229-1 318-378)
- T1 construct: KDM5C, human, PHD1 domain, residues 318-378; 15N-labelled (or 15N,13C) for NMR; also called PHD1 domain of KDM5C; source: E. coli BL21(DE3), M9 minimal medium, purified (Ni-NTA, MonoQ flow-through); not shown: 6xHis, N-terminal, cleaved; SUMO (Smt3), N-terminal, cleaved
- T1 sequence (looked up): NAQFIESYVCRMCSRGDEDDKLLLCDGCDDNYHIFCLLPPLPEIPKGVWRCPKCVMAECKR
- assayText: NMR titration; 2D 1H-15N HSQC of 200 μM 15N-PHD1 with increasing peptide up to 1:5 PHD1:peptide; 50 mM HEPES pH 7.5, 50 mM KCl, 5 mM BME, 50 μM ZnCl2, 5% D2O, 298 K; Kd from chemical shift change of one residue (I361 or D343), quadratic binding equation
- cond: both partners purified
pKd: −log10 of the molar value.

{"binder": "ARTKQTARKSTGGKAPRK (peptide, UniProt P68431 2-19, looked up, histone H3 N-terminal tail, residues 1-18; also called H3 (1–18) peptide; H3K4me0 (1–18); source: synthetic peptide (GenScript)) [H3 (1–18) tail peptide]", "pKd": 3.89}
